Origin of measurements: paper PMC12040169

protocol-notes: in vitro
cond: human, hela cells, % viability
reported-metric: viability at 28.5 h, 10 µM (%)
Numeric only. Scale: %

Consider the following illustrative entries.
molecule: O=C(NCCc1c[nH]c2ccccc12)NC(=O)C1CCNCC1
viability at 28.5 h, 10 µM, %: 90.2
//
molecule: Cc1ccc(Cl)c(OC(C)C(=O)N2CCN(c3ccccn3)CC2)c1 (stereo not shown)
viability at 28.5 h, 10 µM, %: 90.4
//
molecule: CS(=O)(=O)c1ccc(-c2cccc(COC3CCN(C(=O)Cc4ccc(C#N)cc4)CC3)c2)cc1
viability at 28.5 h, 10 µM, %: 96.3
//
molecule: Clc1ccc(-c2c[nH]c([C@@H]3COCCN3Cc3c[nH]cn3)n2)cc1
viability at 28.5 h, 10 µM, %: 105
//
molecule: CSc1ccccc1C(=O)N1CCN(S(=O)(=O)c2sc(C(=O)O)c(C)c2C(=O)O)CC1
viability at 28.5 h, 10 µM, %: 90.4

Please report the recorded viability at 28.5 h, 10 µM for Cn1c(CSCc2ccccc2)nnc1SCC(=O)c1ccc(Br)cc1 . 94.9

And the next one, c1ccc2nc(N3CCCC3)c(SCCc3cnccn3)nc2c1 ? 106

And the next one, COc1ccccc1N1CCN(CCC(=O)Nc2ccccc2F)CC1 ? 106

And the next one, Cc1ccc(-n2c3nc(=O)n(C)c(=O)c-3cc3ccccc32)cc1 ? 103

And the next one, O=C(OCCc1ccncc1)N1CCC(F)(F)CC1 ? 105
